# Tested on: 616215-338-R-J1-PDC tumor spheroids, viability;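 also: spheroids exposed to agents for 7 days before readout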
# assay_summary: Anticancer human tumor 616215-338-R-J1-PDC patient-derived colon adenocarcinoma cell line growth inhibition [GQUAD]; active = viability on the fitted dose curve at most 10% of control; inactive = the rest
# experimental_parameters: second compound 0.1 µM; first compound 10 µM; spheroids with HUVEC and MSC
Labels: active, inactive

# molecule, classification
data = [
    ("COc1ncnc(C2CC2)c1-c1ncc2cnn(Cc3ccc(-c4nc(C(F)(F)F)cn4C(C)C)cc3)c2n1 + Cc1cnc(CNC(=O)c2c(=O)c3ccc(N4CCCN(C)CC4)nc3n3c2sc2ccccc23)cn1", "inactive"),
    ("C=CCn1c(=O)c2cnc(Nc3ccc(N4CCN(C)CC4)cc3)nc2n1-c1cccc(C(C)(C)O)n1 + Cc1cnc(CNC(=O)c2c(=O)c3ccc(N4CCCN(C)CC4)nc3n3c2sc2ccccc23)cn1", "inactive"),
    ("CCCS(=O)(=O)Nc1ccc(F)c(C(=O)c2c[nH]c3ncc(-c4ccc(Cl)cc4)cc23)c1F + Cc1cnc(CNC(=O)c2c(=O)c3ccc(N4CCCN(C)CC4)nc3n3c2sc2ccccc23)cn1", "inactive"),
    ("COc1cccc2c1C(=O)c1c(O)c3c(c(O)c1C2=O)CC(O)(C(=O)CO)CC3OC1CC(N)C(O)C(C)O1 (stereo not given) + Cc1cnc(CNC(=O)c2c(=O)c3ccc(N4CCCN(C)CC4)nc3n3c2sc2ccccc23)cn1", "active"),
    ("CC1COCCN1c1cc(-c2ccnn2C)c2ccnc(-c3ccn[nH]3)c2n1 (stereo not given) + Cc1cnc(CNC(=O)c2c(=O)c3ccc(N4CCCN(C)CC4)nc3n3c2sc2ccccc23)cn1", "inactive"),
]

Data origin, for the record: PubChem BioAssay AID2060493
